Known PBM binding z-score of a selection of sequences
Tested on: THRa:RXRa (NR concentration 90 nM, RXRa partner concentration 90 nM)
Test Details: PBM binding z-score (relative to random genomic background probes); higher = stronger binding; sequences stand for … in GC…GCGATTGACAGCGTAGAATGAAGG
Returns: the value as a bare number; no unit string appended.

GATACAGGGTCCGCTAGAGGCCAGAGTATGGAAA	0.0317
TCGAGTAGGTTAGTCGGGGCATTCACCCAACATA	1.31
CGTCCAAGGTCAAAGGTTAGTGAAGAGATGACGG	4.33
ATATCTAGGTAAGACTCAGTTCAGTGAAGAACGC	0.631
GCACATAGGTAATACAAGGTGAAAGTCCGATTGT	4.19
TCGAGTAGGTTAGCCGGGGCATTCAGCCAACATA	1.17
TGAATGAGGTTAAACATCAGGGAACGTGGCGTCG	2.65
GCTGCTAGGTCAACTGATGGTCAGCGAAAGCTCG	2.98

The value of PBM binding z-score measured for the sequence `CAGAGTAGGTTATGGGGCATTCAGGCAACGGTGA` turned out to be 0.691

// PBM binding z-score value for `TCTAGAAGGCCAGAGGGTCACTCAAGAGGTACGG` : 1.75
